Test conditions: in ethanol, 308.15 K
Measurement label: solubility (mole fraction)

COc1ccccc1N1CCN(CC(O)COc2cccc3ccccc23)CC1 (stereo unspecified) = 0.00229

----------
Test conditions: in methanol, 283.15 K
Measurement label: solubility (mole fraction)

COc1ccccc1N1CCN(CC(O)COc2cccc3ccccc23)CC1 (stereo unspecified) = 0.000719

----------
Test conditions: in methanol, 293.15 K
Measurement label: solubility (mole fraction)

COc1ccccc1N1CCN(CC(O)COc2cccc3ccccc23)CC1 (stereo unspecified) = 0.000922

----------
Test conditions: in ethanol, 313.15 K
Measurement label: solubility (mole fraction)

COc1ccccc1N1CCN(CC(O)COc2cccc3ccccc23)CC1 (stereo unspecified) = 0.00266

----------
Test conditions: in ethyl acetate, 303.15 K
Measurement label: solubility (mole fraction)

COc1ccccc1N1CCN(CC(O)COc2cccc3ccccc23)CC1 (stereo unspecified) = 0.00998

----------
Test conditions: in toluene, 293.15 K
Measurement label: solubility (mole fraction)

COc1ccccc1N1CCN(CC(O)COc2cccc3ccccc23)CC1 (stereo unspecified) = 0.00978

----------
Test conditions: in methanol, 308.15 K
Measurement label: solubility (mole fraction)

COc1ccccc1N1CCN(CC(O)COc2cccc3ccccc23)CC1 (stereo unspecified) = 0.00133

----------
Test conditions: in methanol, 273.15 K
Measurement label: solubility (mole fraction)

COc1ccccc1N1CCN(CC(O)COc2cccc3ccccc23)CC1 (stereo unspecified) = 0.00056

----------
Test conditions: in ethanol, 278.15 K
Measurement label: solubility (mole fraction)

COc1ccccc1N1CCN(CC(O)COc2cccc3ccccc23)CC1 (stereo unspecified) = 0.000955

----------
Test conditions: in acetonitrile, 278.15 K
Measurement label: solubility (mole fraction)

COc1ccccc1N1CCN(CC(O)COc2cccc3ccccc23)CC1 (stereo unspecified) = 0.00132

----------
Test conditions: in ethyl acetate, 288.15 K
Measurement label: solubility (mole fraction)

COc1ccccc1N1CCN(CC(O)COc2cccc3ccccc23)CC1 (stereo unspecified) = 0.0067

----------
Test conditions: in acetonitrile, 313.15 K
Measurement label: solubility (mole fraction)

COc1ccccc1N1CCN(CC(O)COc2cccc3ccccc23)CC1 (stereo unspecified) = 0.00372

----------
Test conditions: in ethyl acetate, 293.15 K
Measurement label: solubility (mole fraction)

COc1ccccc1N1CCN(CC(O)COc2cccc3ccccc23)CC1 (stereo unspecified) = 0.00768

----------
Test conditions: in toluene, 283.15 K
Measurement label: solubility (mole fraction)

COc1ccccc1N1CCN(CC(O)COc2cccc3ccccc23)CC1 (stereo unspecified) = 0.00727

----------
Test conditions: in acetonitrile, 303.15 K
Measurement label: solubility (mole fraction)

COc1ccccc1N1CCN(CC(O)COc2cccc3ccccc23)CC1 (stereo unspecified) = 0.0028

----------
Test conditions: in acetone, 298.15 K
Measurement label: solubility (mole fraction)

COc1ccccc1N1CCN(CC(O)COc2cccc3ccccc23)CC1 (stereo unspecified) = 0.00782

----------
Test conditions: in methanol, 288.15 K
Measurement label: solubility (mole fraction)

COc1ccccc1N1CCN(CC(O)COc2cccc3ccccc23)CC1 (stereo unspecified) = 0.000822

----------
Test conditions: in methanol, 313.15 K
Measurement label: solubility (mole fraction)

COc1ccccc1N1CCN(CC(O)COc2cccc3ccccc23)CC1 (stereo unspecified) = 0.0015

----------
Test conditions: in ethanol, 293.15 K
Measurement label: solubility (mole fraction)

COc1ccccc1N1CCN(CC(O)COc2cccc3ccccc23)CC1 (stereo unspecified) = 0.00152
